# test-target: T1, recombinant human CD19 (labeled CD19) (human, UniProt P15391 20-291, limits assumed, fluorescent label, kind and site not stated)
# T1 construct: The antigen titrated on yeast is only called 'labeled CD19'; also called fluorescently tagged antigen
# T1 sequence (looked up): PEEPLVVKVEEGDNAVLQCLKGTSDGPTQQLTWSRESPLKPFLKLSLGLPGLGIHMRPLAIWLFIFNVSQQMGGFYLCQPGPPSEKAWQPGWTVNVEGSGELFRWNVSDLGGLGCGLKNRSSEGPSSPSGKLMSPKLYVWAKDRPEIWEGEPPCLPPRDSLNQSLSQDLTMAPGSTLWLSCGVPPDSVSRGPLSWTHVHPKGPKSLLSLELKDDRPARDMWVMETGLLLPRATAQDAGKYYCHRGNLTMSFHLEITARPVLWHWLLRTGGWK
# assay-protocol: flow cytometry of yeast-displayed scFv titrated with decreasing amounts of labeled CD19
observable: EC50

Completed entries (count: 5):
human anti-CD19 ScFv binder M19217-40 (scFv, also called ScFv8) scFv: EVQLVQSGAEVKRPGASVKVSCKASGYTFTSYYMHWVRQAPGQGLVWMGLINPSGGSTSYAQKFQGRVTMTRDTSTSTVYMELSSLRSEDTAVYYCARSDRGITATDAFDIWGQGTMVTVSSGGGGSGGGGSGGGGSQSVLTQPPSVSVAPGQTAKTTCGGSDIGNKNVHWYQQKPGQAPVLVVYDDYDRPSGIPERFSGSNSGDAATLTISTVEVGDEADYVCQVWDGSGDPYWVFGGGTQLTVLG : < 0.01 µg/mL
human anti-CD19 ScFv binder M19217-1 (scFv, also called ScFv2) scFv: EVQLVQSGAEVKKPGASVKVSCKASGYTFTSYYMHWVRQAPGQGLEWMGLINPSGGSTSYAQKFQGRVTMTRDTSTSTVYMELSSLRSEDTAVYYCARSDRGITATDAFDIWGQGTMVTVSSGGGGSGGGGSGGGGSQSVLTQPPSVSVAPGRMAKITCGGSDIGNKNVHWYQQKPGQAPVLVVYDDYDRPSGIPERFSGSNSGDAATLTISTVEVGDEADYFCQVWDGSGDPYWMFGGGTQLTVLG : < 0.01 µg/mL
human anti-CD19 ScFv binder M19217-29 (scFv, also called ScFv6) scFv: EVQLVQSGAEVKKPGASVKVSCKASGYTFTSYYMHWVRQAPGQGLEWMGMINPSGGSTSYAQKFQGRVTMTRDTSTSTVYMELSSLRSEDTAVYYCARSDRGITATDAFDIWGQGTMVTVSSGGGGSGGGGSGGGGSQSVLTQPPSVSVAPGQTAKITCGGSDIGNKNAHWYQQKPGQAPVLVVYDDYDRPSGISERFSGSNSGDAATLTISTVEVGDEADYFCQVWDGSGDPFWVFGGGTQLTVLG : < 0.01 µg/mL
human anti-CD19 ScFv binder M19217-7 (scFv, also called ScFv4) scFv: EVQLVQSGAEVNKPGASVKVSCKASGYTFTSYYMHWVRQAPGQGLEWMGMINPSGGSTSYAQKFQGRVTMTRDTSTSTVYMELSSLRSEDTAVYYCARSDRGITSTDAFDIWGQGTMVTVSSGGGGSGGGGSGGGGSQSVLTQPPSVSLAPGQTAKITCGGSDIGNKNVHWYQQKPGQAPVLVVYDDYNRPSGIPERFSGSNSGDSATLTISTVEVGDEADYFCQVWDGSGDPYWVFGGGTQLTVLG : < 0.01 µg/mL
human anti-CD19 ScFv binder M19217-23 (scFv, also called ScFv5) scFv: EVQLVQSGAEVKKPGASVKVSCKASGYTFTGYYMHWVRQAPGQGLEWIGLINPSGGSTSYEQKFQGRVAMTRDTSTSTVYMELSSLRSEDTAVYYCARSDRGITATDAFDIWGQGTMVTVSSGGGGSGGGGSGGGGSQSVLTQPPSVSVAPGQTAKITCGGSDIGDKNVHWYQQKPGQAPVLVVYDDYDRPSGIPERFSGSNSGDAATLTISTVEVGDEADYFCQVWDGIGDPYWVFGGGTQLTVLG : < 0.01 µg/mL

We now examine a further binder.
In one line, give reported EC50 of the entry human anti-CD19 ScFv binder M19217 (scFv, also called ScFv1; founder clone) scFv: EVQLVQSGAEVKKPGASVKVSCKASGYTFTSYYMHWVRQAPGQGLEWMGIINPSGGSTSYAQKFQGRVTMTRDTSTSTVYMELSSLRSEDTAVYYCARSDRGITATDAFDIWGQGTMVTVSSGGGGSGGGGSGGGGSQSVLTQPPSVSVAPGQTAKITCGGSDIGNKNVHWYQQKPGQAPVLVVYDDYDRPSGIPERFSGSNSGDAATLTISTVEVGDEADYFCQVWDSSGDPYWVFGGGTQLTVLG .
0.5 µg/mL
